- target-or-test-system: Myeloperoxidase (Homo sapiens)
- Sequence (P05164 165-273 limits assumed): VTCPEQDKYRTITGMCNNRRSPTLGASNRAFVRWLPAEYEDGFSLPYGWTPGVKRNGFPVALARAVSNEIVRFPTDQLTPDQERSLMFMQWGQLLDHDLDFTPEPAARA
- Sequence (P05164 279-745 limits assumed): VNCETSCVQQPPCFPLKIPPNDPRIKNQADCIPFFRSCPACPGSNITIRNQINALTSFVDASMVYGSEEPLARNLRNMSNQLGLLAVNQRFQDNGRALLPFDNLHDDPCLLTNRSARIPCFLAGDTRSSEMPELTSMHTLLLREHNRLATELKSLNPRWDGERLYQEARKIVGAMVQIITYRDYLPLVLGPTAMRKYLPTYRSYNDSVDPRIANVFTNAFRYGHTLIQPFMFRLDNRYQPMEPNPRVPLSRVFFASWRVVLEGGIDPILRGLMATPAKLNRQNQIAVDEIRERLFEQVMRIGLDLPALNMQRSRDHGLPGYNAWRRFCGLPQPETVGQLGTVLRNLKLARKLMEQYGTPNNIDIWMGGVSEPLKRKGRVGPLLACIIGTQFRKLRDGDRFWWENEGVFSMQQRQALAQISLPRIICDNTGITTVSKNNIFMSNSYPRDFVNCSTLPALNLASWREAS
- experiment-notes: Inhibition of human MPO using taurine as substrate assessed as reduction in substrate chlorination incubated for 30 mins by taurine-chloramine assay
pIC50: −log10 of the molar value.
readout-kind: pIC50

Would you kindly share the measured pIC50 for Cc1ccc(NC(=O)CSc2nc3ccccc3[nH]2)cc1 ?
5.07

Quick one: NNC(=O)Cn1c(=S)[nH]c2ccccc21
6.41

Same read-out for O=C(Cn1c(=S)[nH]c2ccccc21)Nc1ccc(Cl)cc1 ?
5.11

And then Cc1cccc(NC(=O)CSc2nc3ccccc3[nH]2)c1 , what is it?
5.19

Similarly, O=C(Cn1c(=S)[nH]c2ccccc21)Nc1ccccc1 ?
5.25

[A] Cc1ccccc1NC(=O)Cn1c(=S)[nH]c2ccccc21
[B] COc1ccccc1NC(=O)CSc1nc2ccccc2[nH]1
Consider entries A and B . Which has the numerically lower pIC50? Please respond with the label that marks your chosen entry.
B
(B: 4.98, A: 5.37)

###

- target-or-test-system: Myeloperoxidase (Homo sapiens)
- experiment-notes: Inhibition of human MPO using taurine as substrate assessed as reduction in substrate chlorination at 20 uM incubated for 30 mins by taurine-chloramine assay relative to control
readout-kind: inhibition (%)

What value of inhibition has been recorded for this entry: COc1ccc(NC(=O)CSc2nc3ccccc3[nH]2)cc1
50

Field entry: Cc1ccccc1NC(=O)Cn1c(=S)[nH]c2ccccc21
93

What do you have for O=C(Cn1c(Cl)nc2ccccc21)N1CCCCC1 ?
29.1

[A] O=C(Cn1c(Cl)nc2ccccc21)Nc1ccc([N+](=O)[O-])cc1
[B] COc1ccc(NC(=O)Cn2c(=S)[nH]c3ccccc32)cc1
[C] O=C(Cn1c(Cl)nc2ccccc21)Nc1ccccc1Cl
[D] O=C(CSc1nc2ccccc2[nH]1)N1CCOCC1
// ranking: key=inhibition, reverse=True Submit the labels in the order that the ranking request calls for.
B, A, D, C

###

- target-or-test-system: Myeloperoxidase (Homo sapiens)
- experiment-notes: Inhibition of human MPO using taurine as substrate assessed as reduction in substrate chlorination at 20 uM incubated for 30 mins by taurine-chloramine assay relative to control
readout-kind: inhibition (%)

Quick check: inhibition on Myeloperoxidase (Homo sapiens), item O=C(Cn1c(=S)[nH]c2ccccc21)Nc1cccc(Cl)c1 ?
75.7

Same thing, different molecule: Cc1cccc(NC(=O)Cn2c(=S)[nH]c3ccccc32)c1
91.4

Repeat for the following molecule: COc1cc(NC(=O)CSc2nc3ccccc3[nH]2)cc(OC)c1OC
68.9
